- Assay system: Vanin-1 (Homo sapiens (Human))
- Sequence (O95497 22-513): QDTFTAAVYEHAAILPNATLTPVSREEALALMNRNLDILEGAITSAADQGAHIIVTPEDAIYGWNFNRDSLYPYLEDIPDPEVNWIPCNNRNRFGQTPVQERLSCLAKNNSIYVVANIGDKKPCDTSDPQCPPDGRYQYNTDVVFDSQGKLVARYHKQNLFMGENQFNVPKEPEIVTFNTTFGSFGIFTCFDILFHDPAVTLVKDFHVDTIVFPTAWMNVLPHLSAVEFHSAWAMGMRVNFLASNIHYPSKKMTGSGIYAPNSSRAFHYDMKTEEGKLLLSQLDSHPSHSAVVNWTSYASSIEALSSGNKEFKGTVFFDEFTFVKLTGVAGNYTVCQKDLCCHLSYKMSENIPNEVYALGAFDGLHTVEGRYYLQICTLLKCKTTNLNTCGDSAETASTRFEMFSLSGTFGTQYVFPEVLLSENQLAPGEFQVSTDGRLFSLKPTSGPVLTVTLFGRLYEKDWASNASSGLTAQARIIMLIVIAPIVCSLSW
- Procedure details: VNN1 inhibitor binding assay (Pantothenate-AMC fluorescence)
- Format: biochemical
Value type: IC50

Could you tell me which IC50 is on file for CC(C)(CO)[C@@H](O)C(=O)NCCC(=O)Cc1ccccc1 [RR6, reference compound] ?
1 to 10 µM

###

- Procedure details: PAMPA permeability assay
- Assay type: in vitro ADME
- Study conditions: 20 μM donor in PBS/MeOH 90:10, 5 hours at room temperature
In this section, each of the compounds is paired with its reported Papp at 5 h, 20 µM.
A bare number is not enough; add the unit after it.

Compound	Value measured
CC(=O)NCCN1Cc2nc(NCc3c(F)cc(F)cc3F)ccc2C1=O [Compound 37]	0.68 ×10⁻⁶ cm/s
CCC(=O)NCCN1Cc2nc(NCc3c(F)cc(F)cc3F)ccc2C1=O [Compound 73]	0.79 ×10⁻⁶ cm/s
[2H]C([2H])([2H])C(=O)NCCN1Cc2nc(NCc3c(F)cc(F)cc3F)ccc2C1=O [Compound 202]	1.83 ×10⁻⁶ cm/s

Then this compound:
What does the data say about its Papp at 5 h, 20 µM? Entry: [2H]C([2H])([2H])C([2H])([2H])C(=O)NCCN1Cc2nc(NCc3c(F)cc(F)cc3F)ccc2C1=O [Compound 204]
1.07 ×10⁻⁶ cm/s
